What melting point was measured for each of the following?

[ask] Looking for the measured melting point of CCOC(=O)CC(O)(CC)c1cc2n(c(=O)c1C)Cc1cc3ccccc3nc1-2 (stereo unspecified) , can you help?
[reply] 185 to 188 °C

[ask] // query melting point value for entry OC1C(COCC(F)(F)F)OC(n2cnc3c(NC4CCOCC4)ncnc32)C1O (stereo unspecified)
[reply] 80 to 82 °C

[ask] So what's the measured melting point for this one? CCOc1ccc(-c2ccc3c(c2)C=C(C(=O)Nc2ccc(CN(C)C4CCOCC4)cc2)CCN3C=O)cc1F
[reply] 193 to 196 °C

[ask] Look at this molecule and give its reported melting point. CC(O)=C(C#N)C(=O)Nc1ccc(S(C)(=O)=O)cc1
[reply] 205 to 206 °C

[ask] Item CC(=O)N(CC=C=CC=c1c(C)c2c(n(-c3ccccc3)c1=O)=NN(c1ccccc1)C2=O)c1ccccc1 has what recorded melting point?
[reply] > 300 °C

[ask] Look up melting point for this molecule: COc1cc2c(cc1OC)CN(CCCCOc1ccc(NC(=O)c3nccc4ccccc34)cc1)CC2
[reply] 122 to 123 °C

[ask] So what's the measured melting point for this one? COC(=O)C1(C)CN(C(=O)Nc2ccc(Cl)cc2)N=C1c1ccc(Cl)cc1 (stereo unspecified)
[reply] 122 °C

[ask] Form field: reported melting point of CC(=O)OC1CCCC2=CC=C3C4CCC(C(C)CCCC(C)C)C4(C)CCC3C21C (stereo unspecified)
[reply] 105 to 106 °C

[ask] What measured melting point goes with CCCCC1Oc2cc(C(=O)OC)ccc2NC1=O (stereo unspecified) ?
[reply] 139 to 140 °C

[ask] Please look up its melting point: Cc1oc(-c2ccc(F)cc2)nc1CCOc1ccc(CN(O)C(N)=O)cc1
[reply] 158 to 160 °C

[ask] melting point lookup needed for Cn1ncc(C(=O)N2CCCC2)c1C(=O)Nc1ccn2nc(-c3ccccc3)nc2c1 , thanks.
[reply] 210 to 215 °C

[ask] # input molecule: COc1ccc2c(c1)nc1snc(C(=O)c3ncc(C)c(OC)c3C)n12 ; wanted: its melting point
[reply] 170 to 171 °C

[ask] What measured melting point goes with CC(C)(CO)Cc1cc(C(C)(C)C)c(O)c(C(C)(C)C)c1 ?
[reply] 84 to 86 °C

[ask] Look up melting point for this molecule: Nc1cc(Cl)ccc1C(=O)NO
[reply] 131 to 133 °C

[ask] What melting point value was documented for this molecule, CCCCCNc1nc(SC)nc2c(C)n[nH]c12 ?
[reply] 88 to 90 °C

[ask] For the molecule Cc1c(-c2ccccc2)sc2nc(N)[nH]c(=O)c12 , what melting point is on record?
[reply] 356 to 358 °C

[ask] Fill blank: measured melting point of the molecule CCS(=O)(=O)CCC(=O)NNC(=O)N1Cc2ccccc2Oc2ccc(NS(C)(=O)=O)cc21 is ____.
[reply] 211 to 212 °C

[ask] Request the reported melting point associated with COc1ccc2[nH]nc(N3CCN(C)CC3)c2c1
[reply] 158 to 160 °C

[ask] Recorded melting point for CC1(C)CSSC[C@@H](C(=O)O)NC1=O , please?
[reply] 160 to 162 °C

[ask] melting point for O=C1CN(c2ccccc2)C(=S)N1C1CCCCC1 ?
[reply] 156 °C

[ask] Could you share which melting point value was measured for CCCn1c(=O)c2nc(C(C)Cc3ccc(OCC(=O)NCCN)cc3)[nH]c2n(CCC)c1=O (stereo unspecified) ?
[reply] 143 to 144 °C

[ask] What measured melting point goes with COc1ccc2[nH]c(C(=O)C(C)(C)c3ccc(Cl)cc3)cc2c1 ?
[reply] 177 to 179 °C

[ask] # get_value(readout='melting point', item= CC1(C)Oc2ccc(S(=O)(=O)c3ccc(C#N)cc3)cc2[C@@H](N2CCCC2=O)[C@@H]1O (relative stereo) )
[reply] 234 to 235 °C

[ask] Item OC(Cc1ccc(Cl)cc1Cl)n1ccnc1 (stereo unspecified) has what recorded melting point?
[reply] 139 to 141 °C

[ask] Need melting point of O=C1CN(Cc2ccccc2)CC2c3ccccc3CCCN12 (stereo unspecified) , thanks.
[reply] 125 to 128 °C

[ask] For Cc1ccc2c(c1)C(c1cn(C)c(=O)[nH]c1=S)c1nc(C)oc1C=C2 (stereo unspecified) , what is its reported melting point?
[reply] 238 to 240 °C

[ask] Param item = CCOC(=O)N(C)NC1=Nc2sc(CC)cc2C(c2ccccc2Cl)=NC1 ; retrieve measured melting point.
[reply] 172 to 174 °C

[ask] Field request: melting point | item: COc1ccc(-n2c(=O)cc(OC(C)=O)c3ccccc32)cc1
[reply] 174 to 175 °C

[ask] // returns reported melting point for input O=C(NCCc1ccccc1)C1CCc2ccccc2C1 (stereo unspecified)
[reply] 86 to 87 °C

[ask] Need melting point, item CS(=O)(=O)c1ccc(-c2oc(CO)cc(=O)c2Oc2ccc(Cl)cc2)cc1
[reply] 227 °C

[ask] Look up melting point: CC(=O)OC1CSC(Oc2ccc(-c3c(C)noc3C)nc2)C(OC(C)=O)C1OC(C)=O (stereo unspecified)
[reply] 172 °C

[ask] Recorded melting point of c1ccc2c(Cn3ccnc3)noc2c1 , please.
[reply] 52 to 55 °C

[ask] // melting point lookup, key: CCN(C)C(=O)Nc1c(C(=O)c2ccccc2)[nH]c2cc(Cl)ccc12
[reply] 159 to 161 °C

[ask] For the molecule shown here, CCOC(=O)c1cc2ccc([Si](C)(C)C)cc2[nH]1 , give the reported melting point.
[reply] 127 to 129 °C

[ask] Can you look up the measured melting point of NCCc1c[nH]c2ccc3c(=O)n(CC4CCCCO4)ccc3c12 (stereo unspecified) for me?
[reply] 260 to 262 °C

[ask] Which measured melting point value corresponds to CC(C)COc1ccccc1C1=NC(=O)C2=NC=NC2=N1 ?
[reply] 272 to 273 °C

[ask] Fill blank: measured melting point of the molecule CS(=O)(=O)c1c(C(=O)NN=Cc2cccc3ccccc23)[nH]c2ccccc12 is ____.
[reply] > 250 °C

[ask] Field request: melting point | item: COC(=O)n1c(SCc2ccccn2)nc2ccccc21
[reply] 78 °C

[ask] Suppose we examine the molecule CCOC(=O)C(=CNC1CC1)C(=O)c1cc(Cl)c(F)c(Cl)c1F ; what melting point value has been reported?
[reply] 71 to 74 °C

[ask] What does the data say about its melting point? Entry: O=C(O)CCn1[nH]c(=O)c2ccccc2c1=O
[reply] 201 to 203 °C

[ask] Using the record for CCC(OCC(F)(F)F)c1ccc(Cl)c2nc3n(c12)CCCN3c1ccc(N(C)C)nc1C (stereo unspecified) , report its melting point.
[reply] 144 to 146 °C

Values from a melting point compilation (Tetko et al.; mined from patent text by program, amines drawn as free bases though some values may be those of a salt)
